Provide the recorded Mole percent impurity—initial for the entries that follow.
# measurement.description: Stability in tetrahydrofuran (endoperoxide formation by proton NMR)
# Assay type: physicochemical
# test.conditions: endoperoxide in tetrahydrofuran-d8 solution, initial
All answers are understood in mole percent, so give the number only.

Exercise: Give the measured Mole percent impurity—initial of c1csc(-c2c3cc4ccccc4cc3c(-c3cccs3)c3cc4ccccc4cc23)c1 [Example 1, 2-(13-thien-2-ylpentacene-6-yl)thiophene] .
Solution: 5.66

Exercise: Would you mind doing c1csc(-c2ccc(-c3c4cc5ccccc5cc4c(-c4ccc(-c5cccs5)s4)c4cc5ccccc5cc34)s2)c1 [Example 4] as well?
Solution: 2.91

Exercise: Would you mind doing C[Si](C)(C)c1ccc(-c2c3cc4ccccc4cc3c(-c3ccc([Si](C)(C)C)s3)c3cc4ccccc4cc23)s1 [Example 3] as well?
Solution: 1.96

Exercise: Would you mind doing CCCCCCc1ccc(-c2c3cc4ccccc4cc3c(-c3ccc(CCCCCC)s3)c3cc4ccccc4cc23)s1 [Example 2] as well?
Solution: 2.91
